Cited source for all entries: ChEMBL document CHEMBL4334429

- System: Erythrocyte
- experiment: Hemolytic activity in human RBC after 3 hrs
- Assay type: ADME, cell-based
property: IC50

[
  {
    "substance": "H-KKKLAKLKLGAKLKLKGKLGA-NH2",
    "test-system": "Erythrocyte",
    "reading": "100 µM"
  },
  {
    "substance": "H-KKKKKKKKKGGGLLALLALLA-NH2",
    "test-system": "Erythrocyte",
    "reading": "25 µM"
  },
  {
    "substance": "H-IWLTALKFLGKHAAKHLAKQQLSKL-NH2",
    "test-system": "Erythrocyte",
    "reading": "0.78 µM"
  },
  {
    "substance": "H-GIGKFLHSAKKFGKAFVGEIMNS-NH2",
    "test-system": "Erythrocyte",
    "reading": "> 100 µM"
  },
  {
    "substance": "H-KLLKKAGKLLKKAGKLLKKAG-NH2",
    "test-system": "Erythrocyte",
    "reading": "> 100 µM"
  }
]

###

- Test system: Staphylococcus aureus
- experiment: Antibacterial activity against Staphylococcus aureus after 18 hrs by broth microdilution method
- Type: functional

[
  {
    "substance": "H-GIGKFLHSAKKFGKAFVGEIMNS-NH2",
    "MIC": "100 µM"
  },
  {
    "substance": "H-KKKKKKKKKGGGLLALLALLA-NH2",
    "MIC": "12.5 µM"
  },
  {
    "substance": "H-KLLKKAGKLLKKAGKLLKKAG-NH2",
    "MIC": "12.5 µM"
  },
  {
    "substance": "H-KKKLAKLKLGAKLKLKGKLGA-NH2",
    "MIC": "100 µM"
  }
]
